Form field: Volatilized fraction 48 h (one value per entry).
experiment: Volatility from spray deposit on inert wettable synthetic substrates; format: physicochemical; settings: pH 4, 48 h, test substances 50 g/L, pelargonic acid 30 g/L, Vorox 130 g/L

# Compound, Volatilized fraction 48 h [%]
rows = [
    ("CCCCCCCCC(=O)OCCOCCOCCOCCOCCOCCOCCOCCOC [A2, Pelargonic acid 8 EO ester methyl ether]", 0.4),
    ("CCCCCCCCC(=O)OCCOCCOCCOCCOCCOCCOC(=O)CCCCCCCC [A17, Pelargonic acid 6 EO diester, reference compound]", 1.3),
    ("CCCCCCCCCCOCCOCCOCCOCCOCCOC(=O)CCCCCCCC [A9, Pelargonic acid 5 EO ester decyl ether]", 1.9),
    ("CCCCCCCCC(=O)O [Pelargonic acid, reference compound]", 35.2),
    ("CCCCCCCCC(=O)OCCOCCOCCOCCOCCOCCOCCOCCOC(=O)CCCCCCCC [A18, Pelargonic acid 8 EO diester, reference compound]", 0.9),
    ("CCCCCCCCC(=O)OCCOCCOCCOCCOCCOCCOC [A1, Pelargonic acid 6 EO ester methyl ether]", 1.2),
    ("CCCCCCCCC(=O)OCCOCCOCCOCCCCCC [A10, Pelargonic acid 3 EO ester hexyl ether]", 7.2),
]

---

Assay: Volatility from spray deposit on non-permeable leaf cuticles
Type: physicochemical
Details: pH 4, 24 h, test substances 50 g/L, pelargonic acid 30 g/L, Vorox 130 g/L
Description: The volatility of the test substances from the spray deposit was measured time dependent. All measurements have been carried out using a concentration of 50 g/L of the test substances in the application solution. […] The volatility has been determined after the desired measurement time of 4 h, 24 h and 48 h by weighing of the substrates to obtain the remaining weight of the test substances. […]

# Compound, Readout units, Volatilized fraction 24 h
data = [
    ("CCCCCCCCC(=O)OCCOCCOCCOCCOCCOCCOC(=O)CCCCCCCC [A17, Pelargonic acid 6 EO diester, reference compound]", "%", 1.5),
    ("CCCCCCCCC(=O)OCCOCCOCCOCCOCCOCCOCCOCCOC(=O)CCCCCCCC [A18, Pelargonic acid 8 EO diester, reference compound]", "%", 1.7),
    ("CCCCCCCCC(=O)OCCOCCOCCOCCOCCOCCOC", "%", 4.8),
]

---

Form field: Volatilized fraction 4 h (one value per entry).
assay: Volatility from spray deposit on inert wettable synthetic substrates; assay type: physicochemical; settings: pH 4, 4 h, test substances 50 g/L, pelargonic acid 30 g/L, Vorox 130 g/L

# Molecule, Readout units, Volatilized fraction 4 h
data = [
    ("CCCCCCCCCCOCCOCCOCCOCCOCCOC(=O)CCCCCCCC", "%", 0.3),
    ("CCCCCCCCC(=O)OCCOCCOCCOCCOCCOCCOCCOCCOC", "%", "−0.3"),
    ("CCCCCCCCC(=O)OCCOCCOCCOCCOCCOCCOC(=O)CCCCCCCC [A17, Pelargonic acid 6 EO diester, reference compound]", "%", 0.6),
    ("CCCCCCCCC(=O)OCCOCCOCCOCCOCCOCCOCCOCCOC(=O)CCCCCCCC [A18, Pelargonic acid 8 EO diester, reference compound]", "%", 0.5),
    ("CCCCCCCCC(=O)O [Pelargonic acid, reference compound]", "%", 3.9),
    ("CCCCCCCCC(=O)OCCOCCOCCOCCCCCC", "%", 0.9),
    ("CCCCCCCCC(=O)OCCOCCOCCOCCOCCOCCOC", "%", "−0.2"),
]
